Test system: OVCAR-3
Experiment: NCI tumour cell line growth inhibition, 48 h
Activity calls are given as the source filed them. Rule as the data show it: active = GI50 up to about 1.1 µM and inactive = higher.
Endpoint label: GI50

## Input I would be grateful if you could share the reported GI50 for CC1N[B@@-](C)(c2ccc(C(F)(F)F)cc2)OC1c1ccccc1 (stereo not given in full) .
## Output 57.8 µM (inactive)

## Input Query: GI50; subject: "N#C/C(=C\NC(=S)c1ccncc1)c1nc2ccccc2s1"
## Output 43.4 µM (inactive)

## Input Quick check: GI50 of COc1ccc(C2N(c3ccc(F)c([N+](=O)[O-])c3)C(=O)N3C(c4ccc(OC)cc4)N(c4ccc(F)c([N+](=O)[O-])c4)C(=O)N23)cc1 (stereo not given) ?
## Output > 100 µM (inactive)

## Input # query: GI50 of entry N#CC1CCCCC1NC1(C#N)CCCCC1 (stereo not given)
## Output > 100 µM (inactive)

## Input What value of GI50 has been recorded for this entry: CC(NC(=O)CNP(=O)(c1ccccc1)c1ccccc1)C(=O)NC(Cc1ccccc1)C(=O)OCc1ccccc1 (stereo not given)
## Output 43 µM (inactive)

----------
Please provide measured GI50 for the entries that follow.
Tested on: SK-MEL-2
Assay: NCI tumour cell line growth inhibition, 48 h
Active and inactive are the calls of the source. No stated cut-off is given here; in the data, active = GI50 up to about 1.1 µM and inactive = higher.

## Input Find the recorded GI50 belonging to CCc1cc2c(c3c1CCCC3=O)CC1(Cc3ccc(C(=O)OC)cc3C1)C2 (stereo not drawn) and report it.
## Output > 100 µM (inactive)

## Input For the compound "COc1cccc(/C=C2\CCCCCC2=O)c1" , what GI50 is on record?
## Output > 100 µM (inactive)

## Input Suppose we examine the compound "Cc1cc(=O)oc2c1cc(OCC(=O)OCCN1CCCCC1)c1occ(C)c12" ; what GI50 value has been reported?
## Output > 100 µM (inactive)

## Input Item "COc1cc2c(cc1OCCCOc1cc(-c3ccc(F)cc3)nc(C)n1)N=C[C@@H]1CCCN1C2=O" has what recorded GI50?
## Output 17.2 µM (inactive)

## Input Quick one: GI50 of CCN(CC)CC1c2ccccc2C(CNc2ccccc2)N1C (stereo not drawn) ?
## Output > 100 µM (inactive)

## Input Find the recorded GI50 belonging to N/N=C(\c1nc2ccc(Cl)cc2nc1O)C(O)c1ccc(Cl)c(Cl)c1 (stereo not drawn) and report it.
## Output > 100 µM (inactive)

## Input Record request: GI50 value, item "O=C(Oc1ccccc1)c1cc2cc(CCl)ccc2oc1=O"
## Output 3.17 µM (inactive)

## Input Value lookup for GI50; key = NC(=O)c1nnn(Cc2cc(Cl)c(C(=O)c3ccc(Cl)cc3)c(Cl)c2)c1N [CARBOXYAMIDOTRIAZOLE]
## Output 11.1 µM (inactive)

## Input I'd like to know its GI50. The compound in question is "Cc1ccc2nc(-c3ccc(-n4c(C)nc(=O)c(-c5ccc(F)cc5)c4C)cc3)sc2c1"
## Output 19.1 µM (inactive)

## Input Item under review: "CCCNc1c(Cl)cc(Cl)c2[nH]c3ccccc3c(=O)c12" . Reported GI50?
## Output 39.9 µM (inactive)

## Input Requested field: GI50. Item: "CC(=O)OCc1ccc(O)c(C=O)c1"
## Output > 100 µM (inactive)

## Input Find the recorded GI50 belonging to "OC(C/C(=N\N1CCCCC1)c1cccs1)(C(F)(F)F)C(F)(F)F" and report it.
## Output > 10 µM (inactive)

## Input Item under review: CC1=C2CC3=C(C)C(=O)O[C@H]3C[C@@H](C)[C@@H]2CC1 [AMERICANOLIDE D] . Reported GI50?
## Output > 100 µM (inactive)

## Input What does the data say about its GI50? Entry: "CCCCc1ccc(N2C(=O)c3cccnc3S2(=O)=O)cc1"
## Output > 100 µM (inactive)

## Input // GI50 lookup, key: "O=C1C=CC2(C=C1)CCNC1=C2C(=O)c2ccccc2C1=O"
## Output > 100 µM (inactive)

## Input Which measured GI50 value corresponds to "Cc1cc(CCC(=O)NCCNc2c3ccccc3nc3ccccc23)cc(C)c1O[Si](C)(C)C(C)(C)C" ?
## Output 1.91 µM (inactive)

## Input # get_value(readout='GI50', item= "Cc1cc(C)cc(C(=N)c2ccccc2Cc2cccc3ccccc23)c1" )
## Output 37.8 µM (inactive)

## Input What value of GI50 has been reported for the following compound? "CCOC(=O)C(=[N+]=[N-])C(=O)CN1C(=O)c2ccccc2C1=O"
## Output > 100 µM (inactive)
